system: protein-farnesyl transferase (PFT) (Rattus norvegicus, UniProt Q02293+Q04631)
Construct: PFT derived from rat brain (Q-sepharose fraction)
assay_overview: Inhibitory activities against protein-farnesyl transferase (PFT)
setup_conditions: PFT derived from rat brain; prenyl acceptor H-ras protein or biotin-added Lys-Thr-Ser-Cys-Val-Ile-Met; 37° C., 20 minutes; read-out: 50% inhibitory concentrations (IC50) against PFT activities
Method: Pharmacological Test 1 (Inhibitory activities against protein-farnesyl transferase) […] The enzymatic reaction product containing H-ras protein as the prenyl acceptor, was analyzed by SDS-PAGE (sodium dodecyl sulfate/polyacrylamide gel electrophoresis). […] The measurement of PFT activities using H-ras protein as the prenyl receptor, was also analyzed by a rapid separate method. […]
quantity: IC50 (nM)

(P) CCOC(=O)C(CC(=O)O)=C(O)C(=O)N(CC#Cc1ccccc1)[C@H](C)[C@H](Cc1ccc(C(=O)Nc2ccccc2)o1)c1ccc2c(c1)OCO2 (relative stereo)
(Q) C[C@H]([C@H](Cc1ccc(C(=O)Nc2ccccc2)o1)c1ccc2c(c1)OCO2)N(C/C=C/c1ccccc1)C(=O)C(O)=C(CC(=O)O)C(=O)OC(C)(C)C
QUERY: Return label of the item with the larger IC50. Candidates: P , Q . Reply with the label of the item you choose.
RESULT: P

Source: patent US5981573A
